Data provenance is patent US10259810B2.

biological target: ΔF508-CFTR (Homo sapiens, UniProt P13569, DEL508-508); construct: host or cells: CFBE41o-, doxycycline-inducible; test: CFTR cell surface levels using HRP-tagged ΔF508-CFTR expressing CFBE cells, in the presence of a co-corrector; assay type: cell-based; conditions: HRP-tagged ΔF508-CFTR CFBE cells, in the presence of 3 μM co-corrector; read-out: EC50
Sequence (P13569 with tags, fused parts or gaps DEL508-508): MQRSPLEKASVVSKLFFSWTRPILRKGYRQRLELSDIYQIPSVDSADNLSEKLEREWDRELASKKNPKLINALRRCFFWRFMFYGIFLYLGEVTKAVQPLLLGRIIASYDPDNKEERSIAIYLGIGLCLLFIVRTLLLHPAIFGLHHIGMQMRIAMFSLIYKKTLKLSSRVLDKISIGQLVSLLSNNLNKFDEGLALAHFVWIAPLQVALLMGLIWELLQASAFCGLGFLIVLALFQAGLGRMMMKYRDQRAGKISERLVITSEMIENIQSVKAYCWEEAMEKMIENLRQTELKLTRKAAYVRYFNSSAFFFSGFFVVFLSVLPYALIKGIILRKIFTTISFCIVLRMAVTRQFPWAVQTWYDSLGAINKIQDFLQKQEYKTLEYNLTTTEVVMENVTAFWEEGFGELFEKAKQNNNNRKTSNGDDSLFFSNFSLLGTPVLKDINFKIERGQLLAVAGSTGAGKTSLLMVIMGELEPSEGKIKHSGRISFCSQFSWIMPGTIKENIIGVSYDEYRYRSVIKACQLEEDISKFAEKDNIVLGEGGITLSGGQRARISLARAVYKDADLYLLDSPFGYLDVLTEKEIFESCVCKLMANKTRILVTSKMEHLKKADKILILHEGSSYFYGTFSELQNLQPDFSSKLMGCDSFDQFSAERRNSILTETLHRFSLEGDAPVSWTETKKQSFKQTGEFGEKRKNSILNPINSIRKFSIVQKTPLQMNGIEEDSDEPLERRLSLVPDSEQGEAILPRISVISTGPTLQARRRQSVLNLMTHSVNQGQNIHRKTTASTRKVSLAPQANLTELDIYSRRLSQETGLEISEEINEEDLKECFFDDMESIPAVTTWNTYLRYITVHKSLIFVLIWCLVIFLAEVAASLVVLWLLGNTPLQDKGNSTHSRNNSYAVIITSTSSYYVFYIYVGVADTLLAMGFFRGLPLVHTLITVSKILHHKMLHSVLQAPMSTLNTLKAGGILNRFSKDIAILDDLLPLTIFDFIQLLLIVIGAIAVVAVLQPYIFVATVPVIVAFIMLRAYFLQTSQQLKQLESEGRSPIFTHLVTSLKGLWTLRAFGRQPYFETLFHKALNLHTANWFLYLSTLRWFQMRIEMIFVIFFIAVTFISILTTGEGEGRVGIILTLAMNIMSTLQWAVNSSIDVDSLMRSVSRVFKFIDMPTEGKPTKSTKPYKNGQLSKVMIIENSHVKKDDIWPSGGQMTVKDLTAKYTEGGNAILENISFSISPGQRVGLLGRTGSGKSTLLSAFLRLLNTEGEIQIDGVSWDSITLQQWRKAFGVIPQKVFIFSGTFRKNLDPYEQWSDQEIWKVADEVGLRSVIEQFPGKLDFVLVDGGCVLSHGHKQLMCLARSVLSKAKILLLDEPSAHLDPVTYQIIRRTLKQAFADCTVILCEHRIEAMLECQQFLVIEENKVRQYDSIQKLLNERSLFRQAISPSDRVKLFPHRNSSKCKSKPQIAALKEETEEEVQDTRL
pEC50: −log10 of the molar value.
# cutoff 7 applies to pEC50; >= gives Met, < gives Not met

> print(dat)
                                    compound      cat
 1  CC(C)c1nn(-c2ccccc2)c2nc(C(=O)NS(C)(=O)=O)cc(-c3ccc(N4CCOCC4)nc3)c12  Not met
 2  COCC1CCN(c2cc(C(=O)NS(=O)(=O)N3CCC(N4CCOCC4)C3)nc3c2c(C2CCC2)nn3-c2ccc(F)cc2)CC1 (centres unmarked)      Met
 3  COCCC1CCN(c2cc(C(=O)NS(C)(=O)=O)nc3c2c(C(C)C)nn3-c2cccc(C)c2)CC1  Not met
 4  CN(C)S(=O)(=O)NC(=O)c1cc(C2CCN(CC3CCOCC3)CC2)c2c(C3CCC3)nn(-c3ccc(F)cc3)c2n1  Not met
 5  CCS(=O)(=O)NC(=O)c1cc(-c2ccc(N3CCOCC3)cc2)c2c(C3(C)CCC3)nn(-c3ccccc3)c2n1  Not met
 6  CS(=O)(=O)NC(=O)c1cc(N2CCS(=O)(=O)CC2)c2c(C3CCC3)nn(-c3ccccc3)c2n1  Not met
 7  CCS(=O)(=O)NC(=O)c1cc(-c2cnc(N(C)C)nc2)c2c(C)nn(C3CCCCC3)c2n1  Not met
 8  CC(C)Oc1nn(C2CCCCC2)c2nc(C(=O)NS(=O)(=O)N(C)C)cc(-c3ccc(CN4CCCC4)cc3)c12  Not met
 9  CS(=O)(=O)NC(=O)c1cc(OC[C@@H](F)C2CCOCC2)c2c(C3CCC3)nn(-c3ccccc3)c2n1  Not met
10  CCS(=O)(=O)NC(=O)c1cc(N2CCC(CN3CCOCC3)CC2)c2c(C3CCC3)nn(-c3ccc(F)cc3)c2n1      Met
11  CCS(=O)(=O)NC(=O)c1cc(-c2ccc(OC)cc2)c2c(C)nn(-c3ccccc3)c2n1  Not met
